Test system: OVCAR-3 ovarian
Experiment: NCI-60 one-dose screen, 48 h (100 = growth as untreated, 0 = no growth, -100 = all killed)
Settings: 10 µM unless noted
The panel holds about 83,000 compounds, 20% with a hit somewhere; the sample as a whole holds those more often. The source made the active and inactive calls. The calls were made as follows: active = growth percent below 10; inactive = the rest.
MEASUREMENT_TYPE: growth

Documented growth of O=C(Nc1cc(Br)ccn1)c1cc2cc(Nc3nc(-c4ccccc4)nc4ccccc34)ccc2oc1=O : 113% (inactive)

Documented growth of COc1ccc2c(c1)/C(=C1\S/C(=N/c3nnc(C)s3)NC1=O)C(=O)N2Cc1ccc(Cl)cc1 : 42.2% (inactive)

Documented growth of CN(C)CCCn1c2c(c3cc(-c4cccc(S(N)(=O)=O)c4)ccc3c1=O)C(=O)c1ccccc1-2 : 87.8% (inactive)

Documented growth of O=C(CN1N=C(c2ccc(F)cc2)CCC1=O)Nc1nc2ccccc2s1 : -40.6% (active)

Documented growth of CC(C)C1=C[C@@]23CC[C@H]4[C@](C)(COCCC#N)CCC[C@]4(C)[C@H]2C[C@@H]1[C@@H]1[C@H]3[C@@H](OCCC#N)CC[C@@H]1OCCC#N : 37.1% (inactive)

Documented growth of CCOCCc1c(O)nc(SC)[nH]c1=O : 186% (inactive)

Documented growth of S=C(Nc1ccc(Cl)cc1)c1ccccn1 : 109% (inactive)

Documented growth of C=C1C(=O)O[C@H]2[C@H]1CC/C(COC(=O)CCCCCCC(=O)OC/C1=C/CC[C@@]3(C)O[C@H]3[C@H]3OC(=O)C(=C)[C@@H]3CC1)=C\CC[C@@]1(C)O[C@@H]21 : -3.87% (active)

Documented growth of Nc1ccccc1NC(=O)c1ccc(CSc2nc(N3CCOCC3)c3cccn3n2)cc1 : 1.87% (active)

Documented growth of CCCCCCC/C=C/[C@H]1O[C@]23C(=O)C[C@@]4(C[C@@H](OC5OC(CO)C(O)C(O)C5O)C[C@@H]4[C@H]2C=C1C)OC3=O (some centres undefined) : 9.92% (active)

Documented growth of O=c1[nH]c2ccccc2cc1-c1nc2ccc(Cl)cc2[nH]1 : 35.5% (inactive)

Documented growth of COc1cc(/C=C/C(=O)/C=C/c2cc3ccc(Cl)cc3[nH]c2=O)ccc1O : 42.4% (inactive)

Documented growth of OCCNc1nc(NCCO)nc(Nc2ccc(C3=NN(c4ccc(Cl)cc4)C(c4ccc(Cl)cc4)C3)cc2)n1 (centres undefined) : 40.7% (inactive)

Documented growth of N#Cc1ccc(Oc2ccc3ccc(=O)oc3c2)cc1 : 117% (inactive)

Documented growth of Cc1c(C(=O)Nc2nc3ccccc3[nH]2)cnn1-c1ccccn1 : 112% (inactive)

Documented growth of N#CCNc1ccc(C(=O)O)cc1 : 110% (inactive)

Documented growth of Nc1ccccc1NS(=O)(=O)c1ccc(Cl)cc1 : 105% (inactive)

Documented growth of C#C[C@@]1(O)[C@@H](CO)O[C@@H](n2cc(Br)c3c(N)ncnc32)[C@@H]1O : -25.5% (active)

Documented growth of C=C(C)[C@@H]1CC[C@]2(C(=O)OCCOCCOCC[P+](c3ccccc3)(c3ccccc3)c3ccccc3)CC[C@]3(C)[C@H](CC[C@@H]4[C@@]5(C)CC[C@H](C)C(C)(C)[C@@H]5CC[C@]43C)[C@@H]12 : -91.7% (active)

Documented growth of COc1cc(C2=N/C(=C\c3cc4ccccc4nc3Oc3ccccc3)C(=O)N2C(=N)N)cc(OC)c1OC : 76.7% (inactive)

Documented growth of Cc1[nH]c(N=Nc2ccccc2)nc1N=Nc1ccccc1 : 33.2% (inactive)

Documented growth of COC(=O)[C@]1(C)CCC[C@]2(C)[C@H]3C[C@H]4C(C(C)C)=C[C@]3(CC[C@H]21)[C@@H]1C(=O)N(CCC#N)C(=O)[C@@H]14 : 88.9% (inactive)

Documented growth of CCOC(=O)C1=C(C)n2nc(CC#N)c(C#N)c2NC1c1ccc(Cl)cc1 (centres undefined) : 89.3% (inactive)

Documented growth of CCOC(=O)C(=Cc1c(-c2ccccc2)[nH]c2ccccc12)C(=O)OCC : 38% (inactive)

Documented growth of COc1ccc(-c2[nH]c3ccccc3c2C=C(C#N)C#N)cc1 : -6.19% (active)

Documented growth of C=C1C(=O)O[C@H]2[C@H]1CC/C(COC(=O)c1c[nH]c3ccccc13)=C\CC[C@@]1(C)O[C@@H]21 : -94.2% (active)

Documented growth of CC(C)C[C@H](C(=O)O)N(C)C(=O)[C@@H]1CCCN1C(=O)[C@H](C)OC(=O)[C@H](CCC(N)=O)NC(=O)[C@@H]1CCC(=O)N1 : 103% (inactive)

Documented growth of CCCCCCN1C(=O)CN=C1Nc1ccc2cc3ccc(NC4=NCC(=O)N4CCCCCC)cc3nc2c1 : -35.9% (active)

Documented growth of CC[C@]12C=CCN3CC[C@@]4(c5cc(NC(=O)CCC(=O)O[C@H]6CC[C@H]7[C@@H]8CC[C@H]9CC(=O)CC[C@]9(C)[C@H]8CC[C@]67C)c(OC)cc5N(C)[C@H]4[C@@](O)(C(=O)OC)[C@@H]1OC(C)=O)[C@@H]32 : 73.2% (inactive)

Documented growth of CC(C)(C)c1nc2c(s1)c1nc(N)ncc1c1ccc(NS(=O)(=O)c3c(F)cccc3F)c(F)c12 : 80.7% (inactive)

Documented growth of CN1CCN(C(=O)[C@@]2(C)CC[C@]3(C)CC[C@]4(C)C(=CC[C@@H]5[C@@]6(C)CC[C@H](OC(=O)c7cccnc7)C(C)(C)[C@@H]6CC[C@]54C)[C@@H]3C2)CC1 : 80.9% (inactive)

Documented growth of c1ccc(Sc2ncccn2)nc1 : 102% (inactive)

Documented growth of Cc1nccc2c3ccc(OCc4cn(-c5ccc(Br)cc5)nn4)cc3n(CC(C)C)c12 : 57.8% (inactive)

Documented growth of COCCOCCOCc1n(Cc2ccc3ccccc3n2)c2ccccc2[n+]1Cc1ccc2ccccc2n1 : 7.54% (active)

The values you see were collected from PubChem BioAssay (NCI).
